Reference source for all entries: ChEMBL document CHEMBL3507680

A collection of compounds and their measured cytotoxicity at 70.5 h
measurement-description: Human HepG2 cell viability assay in 384 well format
Assay type: toxicity, cell-based
Parameters: dose 125 nL, time 70.5 hour; concentration not given beside the values
condition-details: HepG2 cells, read-out: Inhibition

- compound: "CN(C)C(C(=O)NCCS(=O)(=O)N(C)C)c1cccc(F)c1 (stereo not drawn)"
  cytotoxicity at 70.5 h (%): 8.21
- compound: "Cc1cc(N2CCCC2)nc(N(C)CCO)c1C#N"
  cytotoxicity at 70.5 h (%): -9.55
- compound: "COCc1nn(CC2CC2)c2c1CN(C(=O)c1ccno1)CC2"
  cytotoxicity at 70.5 h (%): -3.21
- compound: "CC(=O)N1CCCC(C(=O)N2CCN(c3cnn(C)c(=O)c3)CC2)C1 (stereo not drawn)"
  cytotoxicity at 70.5 h (%): 9.66
- compound: "c1ccc(CCN2CC(n3cccn3)C2)nc1"
  cytotoxicity at 70.5 h (%): -15.6
- compound: "CC(C)C(Sc1nnc(C2CC2)n1C1CC1)C(=O)NCc1cccnc1 (stereo not drawn)"
  cytotoxicity at 70.5 h (%): -8.64
- compound: "Cc1nn(C)c(C)c1C1CCCN1Cc1nc(N)c2ccccc2n1 (stereo not drawn)"
  cytotoxicity at 70.5 h (%): -2.07
- compound: "Cc1c(C(=O)NCCCC(N)=O)sc2ccc(F)cc12"
  cytotoxicity at 70.5 h (%): 25.3
- compound: "COC(=O)C1CCN(C(=O)Nc2cc(-n3cccc3)ccc2F)CC1"
  cytotoxicity at 70.5 h (%): -6.77
- compound: "COC(=O)CNC(=O)Cn1ccc2ccc(F)cc21"
  cytotoxicity at 70.5 h (%): -3.86
- compound: "COC(=O)C(c1cc(F)ccc1F)N(C)C(=O)c1cnccn1 (stereo not drawn)"
  cytotoxicity at 70.5 h (%): 21.6
- compound: "CCS(=O)(=O)N1CCOCC2(CCN(c3ccccn3)C2)C1 (stereo not drawn)"
  cytotoxicity at 70.5 h (%): -11.4
- compound: "CCCOc1ccccc1C(N)CC(C)C (stereo not drawn)"
  cytotoxicity at 70.5 h (%): -9.52
- compound: "O=C1CNc2ncnc(Nc3cccc(Cn4cccn4)c3)c2N1"
  cytotoxicity at 70.5 h (%): -6.61
- compound: "O=C(NCc1ccco1)[C@@H]1CCO[C@@H]2CCN(c3ncccn3)C[C@H]21"
  cytotoxicity at 70.5 h (%): -3.72
- compound: "CCOc1ccc(C#N)cc1NCC(=O)OC"
  cytotoxicity at 70.5 h (%): -2.6
- compound: "Cn1c(-c2ccccc2Cl)nc2cc(C(=O)NCCS(C)(=O)=O)cnc21"
  cytotoxicity at 70.5 h (%): -7.15
- compound: "Cc1cc(C(=O)NCC(Cc2cccc(F)c2)N2CCCCC2=O)no1 (stereo not drawn)"
  cytotoxicity at 70.5 h (%): -2.65
- compound: "CCCc1nccn1-c1ccc(C(O)CN2CCOCC2)cc1 (stereo not drawn)"
  cytotoxicity at 70.5 h (%): 27.6
- compound: "O=C(C1CCC1)N1CCCC1c1nnc2n1CCCCC2 (stereo not drawn)"
  cytotoxicity at 70.5 h (%): 9.95
- compound: "c1cc(CN2CCCC(c3nnc(-c4cnccn4)o3)C2)ccn1 (stereo not drawn)"
  cytotoxicity at 70.5 h (%): -8.48
- compound: "CC(=O)N1CCC(Cc2nccnc2-c2c(C)n[nH]c2C)C1 (stereo not drawn)"
  cytotoxicity at 70.5 h (%): -8.33
- compound: "CC(=O)Nc1nc(C(=O)NCCOc2cccc(C)c2)cs1"
  cytotoxicity at 70.5 h (%): -8.98
- compound: "CC(C(=O)N1CCN(c2ccccc2Cl)CC1)n1cncn1 (stereo not drawn)"
  cytotoxicity at 70.5 h (%): 10.3
- compound: "CC(CNC(=O)c1ccn(-c2ccc(F)cc2)n1)Cn1cccn1 (stereo not drawn)"
  cytotoxicity at 70.5 h (%): -22.8
- compound: "c1cc(CNCCC2CCCO2)ccn1 (stereo not drawn)"
  cytotoxicity at 70.5 h (%): 5.59
- compound: "CC(C)=CCN1CCN(C(=O)c2cc(C(C)C)no2)[C@H]2CS(=O)(=O)C[C@H]21"
  cytotoxicity at 70.5 h (%): -8.12
- compound: "CC(=O)N1CCC(Cc2cncc(-c3c(C)n[nH]c3C)n2)C1 (stereo not drawn)"
  cytotoxicity at 70.5 h (%): -9.36
- compound: "COc1ccccc1NC(=O)NCc1cn[nH]c1"
  cytotoxicity at 70.5 h (%): -7.77
- compound: "CC(C)(C)c1cnc(CN(Cc2cccnc2)CC2CCCO2)o1 (stereo not drawn)"
  cytotoxicity at 70.5 h (%): -12.3
- compound: "CN(Cc1nccs1)c1nc(-c2ccccn2)nc2c1CCNCC2"
  cytotoxicity at 70.5 h (%): -4.75
- compound: "O=C(c1ccsc1)N1CC(C(=O)N2CCOCC2)C2(CCOCC2)C1 (stereo not drawn)"
  cytotoxicity at 70.5 h (%): -1.97
- compound: "CC1c2ncc(CNC(=O)C3CC3)n2CCN1Cc1ccncc1 (stereo not drawn)"
  cytotoxicity at 70.5 h (%): -16.1
